system.tested: T1, human CD112R on Jurkat CD112R effector cells (human, UniProt Q6DKI7 1-326)
T1 sequence (looked up): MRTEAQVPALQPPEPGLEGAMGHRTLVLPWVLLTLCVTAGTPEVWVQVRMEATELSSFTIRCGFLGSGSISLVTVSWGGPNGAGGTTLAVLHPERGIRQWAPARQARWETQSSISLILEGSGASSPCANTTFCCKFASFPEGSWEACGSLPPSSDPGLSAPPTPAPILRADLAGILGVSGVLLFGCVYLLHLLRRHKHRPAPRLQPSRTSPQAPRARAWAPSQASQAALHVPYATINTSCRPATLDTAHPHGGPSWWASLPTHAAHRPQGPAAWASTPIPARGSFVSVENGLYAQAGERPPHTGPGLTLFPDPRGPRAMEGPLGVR
method.summary: cell-based or functional assay
readout: EC50, CD112R/CD112 reporter (µg/mL)
// note: answer is a bare numeric in µg/mL

## Task Identify EC50, CD112R/CD112 reporter associated with the binder Hu20 (antibody, IgG4, V domains shown, humanized IgG4) VH: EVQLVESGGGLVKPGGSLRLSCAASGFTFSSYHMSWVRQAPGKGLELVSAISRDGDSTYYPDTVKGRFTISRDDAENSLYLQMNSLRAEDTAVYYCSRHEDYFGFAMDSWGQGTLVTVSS VL: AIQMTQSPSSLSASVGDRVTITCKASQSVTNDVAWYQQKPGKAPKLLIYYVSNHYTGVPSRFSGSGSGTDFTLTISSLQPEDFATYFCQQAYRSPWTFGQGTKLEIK
## Result 0.038

---
## Task State its EC50, CD112R/CD112 reporter for this binder: Hu23 (antibody, IgG4, V domains shown, humanized IgG4) VH: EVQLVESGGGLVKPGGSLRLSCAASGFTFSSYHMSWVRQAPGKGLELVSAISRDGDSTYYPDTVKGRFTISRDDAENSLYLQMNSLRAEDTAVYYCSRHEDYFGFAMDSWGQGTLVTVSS VL: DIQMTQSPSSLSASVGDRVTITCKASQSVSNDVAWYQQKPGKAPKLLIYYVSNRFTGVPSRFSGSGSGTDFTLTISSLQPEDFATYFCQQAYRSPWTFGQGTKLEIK
## Result 0.0374
